Ok so here's the combined literature set: IC50 for RAF proto-oncogene serine/threonine-protein kinase (Homo sapiens, UniProt P04049).
readout_label: IC50

- O=C(c1c(F)ccc(NS(=O)(=O)c2ccccc2F)c1F)c1c[nH]c2ncncc12: ≤ 10 µM
- CCCS(=O)(=O)Nc1ccc(F)c(C(=O)Nc2cnc3ccccc3c2)c1F: ≤ 10 µM
- O=C(c1c(F)ccc(NS(=O)(=O)c2ccc(OC(F)F)cc2)c1F)c1c[nH]c2ncncc12: ≤ 10 µM
- Nc1nccn2c1c(-c1ccc3ccc(-c4ccccc4)nc3c1)nc2[C@H]1C[C@@H](CN2CCC2)C1: > 10 µM
